system: UO-31 renal; assay: NCI tumour cell line growth inhibition, 48 h
TGI listing for selected compounds.
readout-label: TGI

1) Nc1c2ccccc2nc2nccnc12; > 100 µM
2) O=C(CC(O)(C(F)(F)Cl)C(F)(F)Cl)CC(O)(C(F)(F)Cl)C(F)(F)Cl; > 10 µM
3) COc1cc2c3c(n(CCCNC(C)(C)CO)c(=O)c2cc1OC)-c1cc2c(cc1C3=O)OCO2; > 55.4 µM
4) CCOC(=O)C(CC(C)C)NC(=O)C(N)Cc1ccc(N(CCCl)CCCl)cc1 (stereo not drawn); 5.97 µM
5) COc1cc(CN(C)N2C(=O)c3cccc4cc([N+](=O)[O-])cc(c34)C2=O)cc(OC)c1OC; > 100 µM
6) COC(=O)C(=O)C(C(=O)C(=O)Nc1ccccc1C(N)=O)c1nc2ccc([N+](=O)[O-])cc2[nH]c1=O (stereo not drawn); > 100 µM
7) O=C([CH-]C(=O)c1ccccc1)c1ccccc1.O=C([CH-]C(=O)c1ccccc1)c1ccccc1.[CH2-]CCC.[CH2-]CCC.[Sn+4]; 2.29 µM
8) COc1c(O)cc2c(c1CC=C(C)C)OC(=O)c1c(cc(O)c(CC=C(C)C)c1O)O2; 7.79 µM
9) O=P1(O)c2ccccc2CSCc2ccccc21; > 100 µM
10) Cc1cc2c(=O)cc(-c3ccc(Cl)cc3Cl)oc2c(C(=O)O)c1C; > 100 µM
11) Cc1cc(C)c(S(=O)(=O)N(CCCCCCN)OCCCON(CCCCCCN)S(=O)(=O)c2c(C)cc(C)cc2C)c(C)c1; 4.04 µM
12) Cc1ccc(S(=O)OC2c3ccccc3Cc3ccccc32)cc1 (stereo not drawn); 45.7 µM
13) O=C(c1ccccc1)c1ccc(N2C(=O)/C(=C/c3cccc([N+](=O)[O-])c3)N=C2c2ccccc2)c(N2C(=O)/C(=C/c3cccc([N+](=O)[O-])c3)N=C2c2ccccc2)c1; > 100 µM
14) COC(=O)c1oc([N+](=O)[O-])c(-c2ccccc2)c1-c1ccccc1; > 100 µM
15) O=C(O)CSc1nc2ccccc2[nH]1; > 100 µM
16) COc1cc(Br)cc2c1O[C@H]1C(=O)CC3CC21CCN3C (stereo partly drawn); > 100 µM
17) COc1ccc2c(c1)OC(N)=C(C#N)C2c1ccc(F)c(F)c1 (stereo not drawn); > 100 µM
18) CC(=O)N[C@@H](Cc1ccc(OP(=O)(O)O)cc1)C(=O)N[C@H]1CCC(=O)N2CCC[C@@H](C(=O)NCc3cccc4ccccc34)N2C1=O; > 25 µM
19) Cc1ccc(C)n1-n1c(Cc2ccc(Cl)cc2)n[nH]c1=O; > 100 µM
20) CCCc1c(O)c2ccccc2[nH]c1=O; > 100 µM
21) c1ccc2c(CNCCCN3CCN(CCCNCc4cccc5ccccc45)CC3)cccc2c1; 3.22 µM
22) Cc1cccc2c1NC(=O)[C@@H](NC(=O)[C@H](CCC(F)(F)F)[C@H](CCC(F)(F)F)C(N)=O)N=C2c1cccc(F)c1; > 100 µM
23) C=CC(Br)(CBr)CCC1OC1(C)C (stereo not drawn); 32.8 µM
24) CC1(C)CCCC2(C)[C@@H]1CC[C@]13C[C@](C)(CC[C@@H]21)[C@@H]3CO (stereo partly drawn); > 100 µM
25) O=C(NC(=S)Nc1ccc(-c2nc3ccccc3[nH]2)cc1)c1ccc2ccccc2c1; 3.65 µM
26) N[C@@H]1c2c(Br)sc(Br)c2C(=O)[C@H]1Br; 55.6 µM
27) O=C1CNC(=O)N1; > 1120 µM
28) CO[C@@H]1[C@H](N(C)C(=O)c2ccccc2)C[C@@H]2O[C@]1(C)n1c3ccccc3c3c4c(c5c6ccccc6n2c5c31)C(=O)NC4=O; 1.46 µM

* * *

system: CCRF-CEM leukemia; assay: NCI tumour cell line growth inhibition, 48 h
Where a SMILES comes first, the peptide text is derived from it. The star is where a group is joined. Boc = CC(C)(C)OC(=O)*
TGI listing for selected compounds.
readout-label: TGI

1) COc1ccc(/C=C2\N=C(N3CCOCC3)NC2=O)cc1; > 100 µM
2) CNC(=O)CNC(=O)C(NC(=O)CNC(=O)C1CCCN1C(=O)C(C)NC(=O)C(NC(=O)OC(C)(C)C)C(C)C)C(C)C (stereo not drawn) (Boc-VAPGVG-NHMe; configuration not given here); > 100 µM
3) COc1cc(C)cc(C(=O)OCc2ccccc2)c1C1=C(Cl)C(=O)C(Cl)=CC1=O; 4.76 µM
4) CC(=O)NS(=O)(=O)c1ccc(-n2nc(-c3ccccc3)cc2-c2cc(O)ccc2O)cc1; > 100 µM
5) Cc1ccc(C)c(N2C(=O)C(=O)C(c3nc4ccccc4s3)C(=O)C2=O)c1; > 100 µM
6) NNC(=S)N/N=C/c1ccccn1; > 100 µM
7) Cc1cc2c(=O)c3ccc(Cl)cc3[nH]c2c(C(=O)O)c1C; > 100 µM
8) CC(Cc1ccc(O)cn1)(NC(=O)c1ccccc1)C(=O)O (stereo not drawn); > 100 µM
9) O=C(Nn1c(-c2ccccc2)nc2ccccc2c1=O)c1ccc([N+](=O)[O-])cc1; > 100 µM
10) CCCCCCCCOP(=O)(O)OP(=O)(O)OCC1OC(n2ccc(N)nc2=O)C(O)C1O (stereo not drawn); > 100 µM
11) CCOC(=O)c1sc2c(c1OC(=O)c1ccc(Cl)cc1Cl)c(=O)n(-c1ccccc1)c(=S)n2-c1ccccc1; > 100 µM
12) CCC1CN2CCc3cc(OC)c(OC)cc3C2CC1CC1c2cc(OC)c(OC)cc2CCN1C(=O)C(Cc1c[nH]c2ccccc12)NC(=O)OC(C)(C)C (stereo not drawn); 15.7 µM
13) CCOC(=O)C(CC(C)C)NC(=O)C(N)Cc1ccc(N(CCCl)CCCl)cc1 (stereo not drawn); 13 µM
14) CC(=O)OCC(OC(C)=O)C(OC(C)=O)C(/C=N\Nc1nc2ccccc2c(=O)[nH]1)OC(C)=O (stereo not drawn); > 100 µM
15) c1ccc(C2C3=C(c4ccccc4CC3)N3c4cc5nc6ccccc6nc5cc4NC34CCCCC24)cc1 (stereo not drawn); 5.9 µM
16) CCOC(=O)C(=NN(C)c1ncccc1N)C(=O)OCC; > 100 µM
17) CNc1cccc(-c2cc(=O)c3cc4c(cc3[nH]2)OCO4)c1; 11 µM
18) COc1cc2c(OC)c3cc(C)oc(=O)c3c(O)c2c(O)c1-c1c(OC)cc2c(OC)c3cc(C)oc(=O)c3c(O)c2c1O; 39.3 µM
19) Fc1ccc(-c2nn3c(COc4ccccc4Cl)nnc3s2)cc1Oc1ccccc1; > 100 µM
20) Cc1ccc(NC(=O)CC2SC(=Nc3cccc(Cl)c3C)NC2=O)cc1 (stereo not drawn); > 100 µM
21) Clc1ccc(Nc2ncnc3ccccc23)cc1; > 100 µM
22) Brc1ccc2[nH]cc([C@@H]3CN[C@@H](c4c[nH]c5ccc(Br)cc45)CN3)c2c1; 5.41 µM
23) CN(CCNc1ccc(C(=N)N)cc1)c1ccc(C(=N)N)cc1; > 100 µM

* * *

system: KM12 colon; assay: NCI tumour cell line growth inhibition, 48 h; in the data active = GI50 below about 0.43 µM; inactive = the rest
Possible outcomes: class 1 = active, class 0 = inactive

1. COc1ccc2c(c1)OC(N)=C(C#N)C2c1ccc(F)c(F)c1 (stereo not drawn); class 1
2. Nc1n[nH]c2ccc([C@H]3[C@@H]4C5CCC(C5)[C@@H]4c4c(ccc5[nH]ncc45)N3S(=O)(=O)C3CC3)cc12 (stereo partly drawn); class 1
3. CCOC(=O)Cc1csc(Nc2nc(O)c(C3=c4ccccc4=NC3=O)s2)n1; class 0
4. COC(=O)Nc1nc2ccc(C(=O)C3CC3)cc2[nH]1; class 1
5. O=C1/C(=C\c2ccc(Cl)cc2)CN(C(=O)c2ccccc2)C/C1=C\c1ccc(Cl)cc1; class 0
6. CC(C)[C@]12O[C@H]1[C@@H]1O[C@]13[C@]1(O[C@H]1C[C@H]1C4=C(CC[C@@]13C)C(=O)OC4)[C@@H]2OC(=O)OC(C)(C)C; class 1
7. NS(=O)(=O)c1ccc(N=Nc2c(O)[nH]c3cccc(CCc4ccncc4)c23)cc1; class 0
8. CC(=O)NS(=O)(=O)c1ccc(-n2nc(-c3ccccc3)cc2-c2cc(O)ccc2O)cc1; class 0

* * *

TGI listing for selected molecules.
system: A549 NSCLC; experiment: NCI tumour cell line growth inhibition, 48 h
readout-label: TGI

1) Brc1ccc(N=C/C=C(\Nc2ccc(Br)cc2)C23CC4CC(CC(C4)C2)C3)cc1; > 100 µM
2) NC(=S)N/N=C/c1cn(CCCl)c2ccccc12; > 100 µM
3) N[C@@H]1c2c(Br)sc(Br)c2C(=O)[C@H]1Br; > 100 µM
4) COc1ccc(C(=O)O[C@@H]2CCN3CC[C@H](C)[C@H]23)cc1; > 100 µM
5) C=CC(Br)(CBr)CCC1OC1(C)C (stereo unspecified); 64.3 µM
6) COc1cc(C)cc(C(=O)OCc2ccccc2)c1C1=C(Cl)C(=O)C(Cl)=CC1=O; > 10 µM
7) CCN(CC)CCC1CCCCN1CC(=O)N1c2ccccc2NC(=O)CC1C (stereo unspecified); > 100 µM
8) CCOc1ccc(N=C2NC(=O)C(CC(=O)Nc3ccc(Cl)cc3Cl)S2)cc1 (stereo unspecified); > 100 µM
9) COc1ccc(-c2cc(=O)c3cc4c(cc3[nH]2)OCO4)c(OC)c1; > 100 µM
10) COC(=O)c1oc([N+](=O)[O-])c(-c2ccccc2)c1-c1ccccc1; > 100 µM
11) CCOC(=O)c1c2c(n(Cc3ccccc3)c1C)-c1nc[nH]c1C(=O)C2=O; 25.9 µM
